# Test system: arrowleaf sida
# TEST: Test E preemergence
# Assay type: in vivo, Sida rhombifolia
# STATED_CONDITIONS: 31 g ai/ha, preemergence, scale 0 to 100 (0 no effect, 100 complete control)
# Excerpt: […]
Each entry below carries its reported Arrowleaf Sida plant response rating.
VALUE_KIND: Arrowleaf Sida plant response rating

> print(dat)
                                   compound  experimental.result
1  N#Cc1cnn(-c2c(C#N)cccc2Oc2ncc(F)cn2)c1 [Compound 111]                   50
2  N#Cc1cccc(Oc2ncc(Br)cn2)c1-n1cc(I)cn1 [Compound 88]                   40
3  N#Cc1cccc(Oc2ncc(F)cn2)c1-n1cc(Cl)cn1 [Compound 73]                   40
4  CCOc1cnn(-c2c(C#N)cccc2Oc2ncc(F)cn2)c1 [Compound 89]                   50
5  N#Cc1cccc(Oc2ncc(Cl)cn2)c1-n1cc(C(F)(F)F)cn1 [Compound 58]                  100
6  FC(F)(F)c1cnn(-c2ccccc2Oc2ncc(Br)cn2)c1 [Compound 18]                    5
7  N#Cc1cccc(Oc2ncc(F)cn2)c1-n1cc(I)cn1 [Compound 86]                    5
